# Subject of test: Protein kinase 7 (PK7), Plasmodium falciparum 3D7 (PF3D7_0213400)
# Assay protocol: inhibition of Plasmodium PK7 catalytic activity – biochemical, TCAMS antimalarial set, Kinase-Glo luminescence (AID 1159587)
# Measurement context: recombinant PfPK7, Kinase-Glo ATP depletion luminescence
Activity calls are given as the source filed them. The rule behind the calls is not given here.
Assay metric: outcome

Previously resolved entries follow.
| Compound | Experimental result |
| --- | --- |
| Cc1ccc([C@@H]2CC(=O)CC(c3ccccn3)[C@H]2[N+](=O)[O-])cc1 (stereo not given in full) | inactive |
| FC(F)(F)c1cnc(Sc2nnc(-c3ccncc3)o2)c(Cl)c1 | inactive |
| Cc1cc(OCCCN2CCC(NS(=O)(=O)c3cccc(Br)c3)C2)c2ccccc2n1 (stereo not given) | inactive |
| Cc1cc(C)cc(OCC(O)CN(Cc2cc(Cl)cc(Cl)c2)C(=O)Nc2ccccc2Cl)c1 (stereo not given) | inactive |

Next compound, outcome to be filled in.
Which outcome value belongs to COc1cccc2cc(C(=O)N[C@@H](CC(C)C)C(=O)NC3CC[C@@H](C)N(C(=O)Nc4ccncc4)CC3=O)oc12 (stereo not given in full) ? inactive

---

# Subject of test: Calcium-dependent protein kinase 4 (Plasmodium falciparum (isolate 3D7))
# Assay protocol: PfCDPK4 kinase inhibitors, biochemical, TCAMS library (AID 1159588)
# Measurement context: recombinant PfCDPK4, Kinase-Glo ATP depletion luminescence
Potency and affinity values are given separately. The source made the active and inactive calls. The limit is not given here; nearly all actives have IC50 up to about 0.91 µM.
Assay metric: outcome

Worked examples follow.
| Compound | outcome |
| --- | --- |
| O=C(N[C@@H](Cc1ccccc1)[C@H](O)CNCCC(F)(F)F)c1cccc(CCC2CC2)c1 | inactive |
| Cc1cc(C)cc(N2C(N)=NC(N)=NC2(C)C)c1 | inactive |
| O=C(Cc1ccc(F)cc1)NC1CCN(c2ccnc3cc(Cl)ccc23)C1 (stereo not given) | inactive |
| COc1cc2nc(N3CCC(CNC(=O)c4ccc(-c5ccc(C(=O)N(C)C)cc5C)cc4)CC3)nc(N3CCN(C)CC3)c2cc1OC | inactive |
| O=C(NCCN1CCCC1)c1ccc(-c2ccc(-c3nc4ccc(C(F)(F)F)cc4[nH]3)s2)cc1 | inactive |

# lookup: outcome of CCCCc1ccccc1NS(=O)(=O)c1ccc(OC)c(N2CCNCC2)c1 inactive

Which outcome is listed for Cn1nc(-c2ccc(NC(=O)Nc3cc(C(F)(F)F)ccc3F)cc2)c2cnc(NCCc3cnc[nH]3)nc21 ? inactive

Field request: outcome | item: CCCCCCN1CCCN(Cc2ccc(C(=O)Nc3ccc(C)c(F)c3)cc2)CC1 inactive

# get_value(readout='outcome', item= Cc1cc(NC2CCCC2)nc(Nc2ccc(F)cc2)n1 ) inactive

So what's the measured outcome for this one? O=C(/C=C/c1ccc(C(F)(F)F)cc1)NCCCCCN1CCC(c2c[nH]c3ccccc23)CC1 inactive

---

# key: entry, value: inhibition
# Subject of test: L-lactate dehydrogenase (Plasmodium falciparum (isolate CDC / Honduras)) (UniProt Q27743)
# Sequence (Q27743 whole entry, looked up): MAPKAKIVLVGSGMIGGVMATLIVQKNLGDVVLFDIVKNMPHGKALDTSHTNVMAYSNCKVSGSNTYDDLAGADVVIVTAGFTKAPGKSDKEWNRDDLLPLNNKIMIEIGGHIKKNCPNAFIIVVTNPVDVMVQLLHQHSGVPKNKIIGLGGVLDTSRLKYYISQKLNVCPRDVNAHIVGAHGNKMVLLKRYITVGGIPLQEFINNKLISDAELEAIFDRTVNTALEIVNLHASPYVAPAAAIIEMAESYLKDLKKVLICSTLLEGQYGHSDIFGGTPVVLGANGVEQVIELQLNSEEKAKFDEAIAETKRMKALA
# Assay protocol: PfLDH activity inhibition – cell lysate, 3D7 strain, counter-screen for P. falciparum growth inhibition project (AID 2304);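 note: 0% = vehicle and 100% = reference inhibitor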
# Measurement context: P. falciparum 3D7 crude extract, LDH APAD/NBT absorbance; at 2 µM; active compounds read high
API: value field is a number in %; no unit string.

| Compound | Assay metric | Unit label | Experimental result |
| --- | --- | --- | --- |
| O=C(/C=C/c1ccc(Cl)c(Cl)c1)N1CCC(CCN2CCC(c3c[nH]c4cc5c(cc34)OCO5)CC2)CC1 | inhibition | % | -4 |

Which measured inhibition value corresponds to CCCc1cc(NCc2ccncc2)nc(Nc2ccc(F)cc2)n1 ? -7

Look up inhibition for this compound: CN(C)CCCNCc1ccc(-c2ccc(CNCCOc3ccccc3)cc2)cc1 0

# query: inhibition of entry CC(C)NCc1ccc(-c2cccc(NC(=O)c3ccc(Cl)cc3)c2)cc1 -7

What value of inhibition has been reported for the following compound? CCOc1cccc(C(=O)Nc2cccc(CN3CCCN(Cc4cccc(O)c4)CC3)c2)c1 -3

Consider the compound COc1cc(Nc2nccc(N3CCC(NC(=O)Nc4ccc5c(c4)OCO5)C3)n2)cc(OC)c1OC (centres undefined) and give its measured inhibition. -1

Give its inhibition value. Item: N[C@@H](CCNCc1ccc(-c2cccnc2)cc1)Cc1ccc(F)c(F)c1 2

Recorded inhibition of CC(C)n1c(CC2CCN(CC3CCN(C(=O)/C=C/c4ccc(Cl)c(Cl)c4)CC3)CC2)nc2ccccc21 , please. -3

Field request: inhibition | item: CC(C)(C)c1nn(-c2ccccc2)c2[nH]c(=O)c(CNCc3ccccc3)cc12 2

meta.source: PubChem BioAssay
